test system: SARS-CoV-2; experiment: microbe, parasite or virus in culture; conditions: Severe acute respiratory syndrome coronavirus 2, Delta, Vero C1008
pEC50: −log10 of the molar value.

| compound | pEC50 |
| --- | --- |
| O=C(c1cc(=O)[nH]c2ccccc12)N1CCN(c2ccc(Cl)c(Cl)c2)CC1CN1CCOCC1 (stereo unspecified) | 5.14 |
